tested.target: b-Raf (V600E) (Homo sapiens (Human), UniProt P15056, V600E)
Sequence (P15056 whole entry V600E): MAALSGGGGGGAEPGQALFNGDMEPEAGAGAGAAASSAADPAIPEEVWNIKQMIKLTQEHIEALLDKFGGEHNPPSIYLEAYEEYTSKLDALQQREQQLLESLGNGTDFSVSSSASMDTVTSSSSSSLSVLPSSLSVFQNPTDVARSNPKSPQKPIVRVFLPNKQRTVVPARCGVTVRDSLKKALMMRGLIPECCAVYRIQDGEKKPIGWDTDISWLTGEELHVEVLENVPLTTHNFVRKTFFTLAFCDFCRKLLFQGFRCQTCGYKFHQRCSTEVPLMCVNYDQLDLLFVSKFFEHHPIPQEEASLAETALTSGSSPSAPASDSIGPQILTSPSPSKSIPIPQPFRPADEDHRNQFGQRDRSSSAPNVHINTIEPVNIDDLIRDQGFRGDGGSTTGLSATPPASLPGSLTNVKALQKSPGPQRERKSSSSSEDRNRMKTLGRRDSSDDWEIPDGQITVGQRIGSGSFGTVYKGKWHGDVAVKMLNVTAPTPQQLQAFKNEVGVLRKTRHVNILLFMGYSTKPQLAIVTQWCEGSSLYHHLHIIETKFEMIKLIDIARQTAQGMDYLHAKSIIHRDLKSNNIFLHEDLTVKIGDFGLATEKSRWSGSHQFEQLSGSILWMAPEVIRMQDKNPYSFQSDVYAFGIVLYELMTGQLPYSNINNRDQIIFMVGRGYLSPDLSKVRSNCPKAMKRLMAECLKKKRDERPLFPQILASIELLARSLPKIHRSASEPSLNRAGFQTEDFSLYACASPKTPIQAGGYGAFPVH
measurement.parameters: read-out: b-Raf IC-50; AlphaScreen, 60 min pre-incubation, reaction 3 hours at room temperature
Kindly supply the reported pIC50 values for the records listed here.
Worth noting: pIC50 values are minus log10 of concentrations stated in mol/L.

The compound Cc1ncc(NC(=O)c2ccnc(C(F)(F)F)c2)cc1-c1cc(N2CCOCC2)c(S(C)(=O)=O)nn1 showed pIC50 equal to 8.11

According to the records, this compound Cc1ncc(NC(=O)c2cnnc(C(F)(F)F)c2)cc1-c1cc(NCCO)nc(N2CCOCC2)c1F displays pIC50 of 7.08

Reported pIC50 for Cc1ccc(NC(=O)c2ccnc(C(F)F)c2)cc1-c1cc(N2CCOCC2)nc(N2CC(O)C2)c1 was 9.22

Consider Cc1ncc(NC(=O)c2ccnc(C(C)(C)F)c2)cc1-c1cc(NCCO)nc(N2CCOCC2)c1 . Its measured pIC50 is 7.95

Measured pIC50, Cc1ccc(NC(=O)c2ccnc(C(C)(F)F)c2)cc1-c1cc(C2COCCO2)nc(N2CCOCC2)c1 (stereo not shown) : 8.89

Lookup result for Cc1ccc(NC(=O)c2cc(C(C)(C)C#N)ccn2)cc1-c1cc(N2CCOCC2)c(=O)n(C)n1 ; measured pIC50: 8.29

Record Cc1ccc(NC(=O)c2cccc(C(F)(F)F)c2)cc1-c1nc2c(c(N3CCOCC3)n1)S(=O)(=O)CC2 . Reported pIC50: 9.40
